- assayed_system: human ether-à-go-go-related gene (hERG) potassium channel (human, UniProt Q12809);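 also: peak tail current of the secondary pulse compared with the same well before compound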
- Sequence (Q12809 whole entry, looked up): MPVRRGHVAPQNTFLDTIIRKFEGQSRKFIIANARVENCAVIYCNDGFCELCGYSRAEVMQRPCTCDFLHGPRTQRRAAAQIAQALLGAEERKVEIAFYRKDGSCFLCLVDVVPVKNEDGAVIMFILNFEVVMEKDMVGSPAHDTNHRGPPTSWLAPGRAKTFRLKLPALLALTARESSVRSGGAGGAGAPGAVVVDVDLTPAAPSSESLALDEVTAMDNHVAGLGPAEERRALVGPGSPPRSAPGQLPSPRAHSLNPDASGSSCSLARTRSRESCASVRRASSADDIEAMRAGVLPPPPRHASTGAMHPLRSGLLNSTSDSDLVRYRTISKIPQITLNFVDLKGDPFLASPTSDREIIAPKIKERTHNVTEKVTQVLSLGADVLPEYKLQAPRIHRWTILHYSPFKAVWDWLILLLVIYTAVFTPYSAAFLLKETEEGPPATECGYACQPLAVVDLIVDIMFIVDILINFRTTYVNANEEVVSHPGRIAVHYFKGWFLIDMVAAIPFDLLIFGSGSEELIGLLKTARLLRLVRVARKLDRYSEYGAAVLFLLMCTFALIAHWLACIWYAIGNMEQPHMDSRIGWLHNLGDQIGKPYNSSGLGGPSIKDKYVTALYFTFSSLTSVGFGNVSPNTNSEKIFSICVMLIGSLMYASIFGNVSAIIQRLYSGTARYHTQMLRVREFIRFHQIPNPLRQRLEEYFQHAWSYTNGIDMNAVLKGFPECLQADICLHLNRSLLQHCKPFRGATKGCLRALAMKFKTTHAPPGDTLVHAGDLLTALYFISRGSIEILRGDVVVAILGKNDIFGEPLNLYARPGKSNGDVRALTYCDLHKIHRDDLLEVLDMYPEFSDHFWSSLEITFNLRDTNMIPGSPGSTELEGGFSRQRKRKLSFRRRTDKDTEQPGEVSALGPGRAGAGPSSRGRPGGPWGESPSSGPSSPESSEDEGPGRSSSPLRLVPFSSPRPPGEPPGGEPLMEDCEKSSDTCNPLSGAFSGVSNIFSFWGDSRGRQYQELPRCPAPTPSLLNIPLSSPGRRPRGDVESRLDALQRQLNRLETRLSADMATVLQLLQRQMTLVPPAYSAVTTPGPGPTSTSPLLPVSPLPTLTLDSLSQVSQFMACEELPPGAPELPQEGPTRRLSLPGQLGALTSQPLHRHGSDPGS
- experimental_details: primary screen, population patch clamp on CHO cells stably expressing hERG; higher = less effect of the substance
- Description: Briefly, Chinese hamster ovary (CHO) cells stably expressing the hERG channel were dislodged from tissue culture flasks and dispensed into PPC plates. […] During the recording, background leak currents were estimated by a 100 ms step to -80 mV from an initial holding potential of -70 mV and subtracted from the subsequent current measurement. The campaign was conducted in two phases using slight differences in recording protocol. […]
Among all 310,000 compounds or so, about 14,000 (4.5%) showed an effect of 50% or more. The effect is printed as a negative number. The sample holds strong results, similar compounds and a random draw of the others, so the mix is not that of the screen.
Consider the following compounds; for each one, report its hERG current change (%, negative = inhibition) at 10uM.
Numeric answer only, unit % assumed.

Recorded hERG current change (%, negative = inhibition) at 10uM (compound CC(Sc1ncn[nH]1)C(=O)Nc1ccc(Cl)cn1 (centres unmarked) ): 2.06

Recorded hERG current change (%, negative = inhibition) at 10uM (compound COc1cc(CCCN2C(=S)NC[C@H]2Cc2ccc(O)cc2)cc(OC)c1OC ): -16.4

Recorded hERG current change (%, negative = inhibition) at 10uM (compound CCN(CC(=O)Nc1cccc(S(N)(=O)=O)c1)Cc1nc2ccccc2c(=O)[nH]1 ): 3.49

Recorded hERG current change (%, negative = inhibition) at 10uM (compound Cc1cccnc1NC(=O)c1cccc(S(=O)(=O)NCc2ccccc2)c1 ): -14.9

Recorded hERG current change (%, negative = inhibition) at 10uM (compound COc1ccc(CNC(=O)CCn2c(=O)oc3ccccc32)cc1 ): -5.31

Recorded hERG current change (%, negative = inhibition) at 10uM (compound CCOc1cc(/C=N/n2c(COc3ccccc3)n[nH]c2=S)ccc1O ): 24.4

Recorded hERG current change (%, negative = inhibition) at 10uM (compound CC1Cc2ccccc2N1S(=O)(=O)c1cccc(C(=O)NCCCO)c1 (centres unmarked) ): -27.9

Recorded hERG current change (%, negative = inhibition) at 10uM (compound CC1Cc2ccccc2N1S(=O)(=O)c1cccc(C(=O)Nc2cccnc2)c1 (centres unmarked) ): -60.2

Recorded hERG current change (%, negative = inhibition) at 10uM (compound CN(C)/C=C1\N=C(c2ccccc2)OC1=O ): 3.09

Recorded hERG current change (%, negative = inhibition) at 10uM (compound CC(=O)Nc1sc(NC(=O)c2ccccc2)nc1-c1cccs1 ): 0.00438

Recorded hERG current change (%, negative = inhibition) at 10uM (compound COc1cc(C(=O)N/N=C(\C)Cn2nc([N+](=O)[O-])cc2C)ccc1O ): -21.1

Recorded hERG current change (%, negative = inhibition) at 10uM (compound CCn1c(=O)c2sccc2n(Cc2ccc(C)cc2)c1=O ): 26

Recorded hERG current change (%, negative = inhibition) at 10uM (compound CCc1ccc2c(c1)C1(SC(NC(C)=O)=NN1C(C)=O)C(=O)N2CC (centres unmarked) ): -0.0665

Recorded hERG current change (%, negative = inhibition) at 10uM (compound CC1Cc2ccccc2N1S(=O)(=O)c1cccc(C(=O)NC2CC2)c1 (centres unmarked) ): -40

Recorded hERG current change (%, negative = inhibition) at 10uM (compound COc1ccccc1N1CCN(C2CCCN(C(=O)c3oc(C)cc3C)C2)CC1 (centres unmarked) ): -47.9

Recorded hERG current change (%, negative = inhibition) at 10uM (compound COc1ccc(/C=N/NC(=O)CCn2c3ccccc3c3ccccc32)cc1O ): 5.18

Recorded hERG current change (%, negative = inhibition) at 10uM (compound CC(=O)N1c2ccc(S(=O)(=O)N3CCCC(C(=O)NCc4ccccc4)C3)cc2CC1C (centres unmarked) ): 13.7

Recorded hERG current change (%, negative = inhibition) at 10uM (compound COc1ccccc1NS(=O)(=O)c1ccc2oc(=S)[nH]c2c1 ): 2.14

Recorded hERG current change (%, negative = inhibition) at 10uM (compound CCCCOC(=O)c1ccc(NC(=S)N2CCN(c3ncc4c(=O)c(C(=O)O)cn(CC)c4n3)CC2)cc1 ): 11.2

Recorded hERG current change (%, negative = inhibition) at 10uM (compound COC(=O)C1=C(c2ccccc2)C[C@@H]2CC[C@H]1N2C(=O)NCCCOC(C)C ): 0.331

Recorded hERG current change (%, negative = inhibition) at 10uM (compound CC(NC1c2ccccc2-c2ccccc21)c1ccccc1 (centres unmarked) ): 9.54

Recorded hERG current change (%, negative = inhibition) at 10uM (compound Cc1ccc(NC(=O)c2cccc(S(=O)(=O)NCc3ccccc3)c2)nc1 ): -50.7

Recorded hERG current change (%, negative = inhibition) at 10uM (compound CS/C(=N/S(=O)(=O)c1ccc(C)cc1)c1ccccc1 ): -3.56

Recorded hERG current change (%, negative = inhibition) at 10uM (compound Cc1ccc(CCC(=O)Nc2ccc(Cl)cc2)o1 ): 12.8

Recorded hERG current change (%, negative = inhibition) at 10uM (compound O=C(NC1CCS(=O)(=O)C1)c1ccc(S(=O)(=O)N2CCCC2)cc1 (centres unmarked) ): 9.83

Recorded hERG current change (%, negative = inhibition) at 10uM (compound COc1ccc(NC(=O)CN2CCN(S(=O)(=O)N(C)C)CC2)cc1 ): -4.55

Recorded hERG current change (%, negative = inhibition) at 10uM (compound CC1Cc2ccccc2N1S(=O)(=O)c1cccc(C(=O)NCc2ccccn2)c1 (centres unmarked) ): -67.6

Recorded hERG current change (%, negative = inhibition) at 10uM (compound CCc1nnc(NC(=O)CN2CCN(c3nc(-c4ccccc4)cs3)CC2)s1 ): -11.8

Recorded hERG current change (%, negative = inhibition) at 10uM (compound O=C1NCCCC1C(=O)N/N=C/c1ccccc1 (centres unmarked) ): -4.35

Recorded hERG current change (%, negative = inhibition) at 10uM (compound CCCCc1cc(C(=O)Cc2ccccn2)c(O)cc1O ): 16.9

Recorded hERG current change (%, negative = inhibition) at 10uM (compound Cc1ccnc(NC(=O)c2cccc(S(=O)(=O)NCc3ccccc3)c2)c1 ): -34.6

Recorded hERG current change (%, negative = inhibition) at 10uM (compound O=C(CSc1nc2c(cnn2-c2cccc(Cl)c2)c(=O)[nH]1)NCCC1=CCCCC1 ): -16.7

Recorded hERG current change (%, negative = inhibition) at 10uM (compound CC(=O)N1c2ccc(S(=O)(=O)N3CCC(C(=O)Nc4cc(C)cc(C)c4)CC3)cc2CC1C (centres unmarked) ): 2

Recorded hERG current change (%, negative = inhibition) at 10uM (compound CN(Cc1ccccc1NS(=O)(=O)c1ccc2ccccc2c1)C1CCCCC1.Cl ): 7.73

Recorded hERG current change (%, negative = inhibition) at 10uM (compound CCCCCc1nc2c(c3c1CCCC3)CCCC2 ): -71.7

Recorded hERG current change (%, negative = inhibition) at 10uM (compound CCCc1cc(=O)n2[nH]c(-c3ccc(C)cc3)cc2n1 ): -0.208

Recorded hERG current change (%, negative = inhibition) at 10uM (compound CC(=O)c1ccc(NS(=O)(=O)c2cccc(C)c2)cc1 ): -1.86

Recorded hERG current change (%, negative = inhibition) at 10uM (compound O=C1CCCN1c1ccc(S(=O)(=O)N2CCN(c3ccccc3)CC2)cc1 ): 16.3

Recorded hERG current change (%, negative = inhibition) at 10uM (compound Cc1ncoc1C(=O)N1CCc2c([nH]c3ccccc23)C1C(C)(C)C (centres unmarked) ): -65.3

Recorded hERG current change (%, negative = inhibition) at 10uM (compound Cc1ncoc1C(=O)N1CCc2c([nH]c3ccccc23)C1C1CCCCC1 (centres unmarked) ): 1.89

Recorded hERG current change (%, negative = inhibition) at 10uM (compound CCOC(=O)c1ccc(NC(=O)CN2CCN(c3ccccc3)CC2)cc1 ): 5.34
